assay.remarks: NCI Yeast Anticancer Drug Screen. Data for the bub3 strain (AID 167)
conditions: S. cerevisiae bub3 mutant strain, at 100.0 µM, active compounds read high
Compounds without any hit were thinned out: in the full panel of roughly 79,000, 15% have a hit.
experimental.readout: growth inhibition (%)
The reply should be a number in %, with the unit left off.

Exercise: Give the reported value of growth inhibition for this record: CC1=C(CO)C2=C(C)C3(CC3)[C@@](C)(O)C(=O)C2=C1
Key: -13

Exercise: Give the reported value of growth inhibition for this record: c1ccc2cc3n[se]nc3cc2c1
Key: 96

Exercise: Give the reported value of growth inhibition for this record: CC[C@](O)(C(=O)O)c1cc2n(c(=O)c1CO)Cc1cc3ccccc3nc1-2
Key: 95

Exercise: Give the reported value of growth inhibition for this record: Nc1nc(N)c(-c2ccc(Cl)c(Cl)c2)c(CP(Cl)(Cl)(Cl)Br)n1
Key: 55

Exercise: Give the reported value of growth inhibition for this record: O=P(CCCCP(=O)(c1ccccc1)c1ccccc1)(c1ccccc1)c1ccccc1.[Cl][Sn]([Cl])([c]1ccccc1)[c]1ccccc1
Key: 96

Exercise: Give the reported value of growth inhibition for this record: CCCN(CCC)c1c([N+](=O)[O-])cc(S(N)(=O)=O)cc1[N+](=O)[O-]
Key: -9

Exercise: Give the reported value of growth inhibition for this record: CC1=C(N2CC2)C(=O)c2ccccc2C1=O
Key: 66
